# Test system: MTAP-deleted cell line
# testSummary: viability assay for the MTAP-deleted cell line
# Assay type: cell-based
# conditionLabel: Homo sapiens, HAP1, viability assay
endpointLabel: IC50

Consider the following illustrative entries.
compound="CN(C)c1cccc(C2CCCCN2C(=O)C(=O)Nc2cnc(N)c3cn[nH]c23)c1 (single isomer, unassigned)" testtarget="MTAP-deleted cell line" endpointlabel=IC50 measurement="100 to 1000 nM"
compound=C[C@H]1CC[C@H](c2cccc(N3CCN(C)CC3)c2)N(C(=O)C(=O)Nc2cnc(N)c3cn[nH]c23)C1 testtarget="MTAP-deleted cell line" endpointlabel=IC50 measurement="< 100 nM"

# next compound below
// field: IC50; key: C[C@H]1CC[C@H](c2ccc3sc(C4CCN(C)C(=O)C4)nc3c2)N(C(=O)C(=O)Nc2cncc3[nH]ncc23)C1 (single isomer, unassigned) ; value = 100 to 1000 nM

====

# Tested on: HAP1 MTAP-intact cell line
# testSummary: SDMA in-cell western assay, HAP1 MTAP-intact
# conditionLabel: Homo sapiens, HAP1, read-out: Hap1 MTAP intact IC50, SDMA in-cell western, HAP1 MTAP-intact cell line
pIC50: −log10 of the molar value.
The following molecules are listed with their measured pIC50 values.

The observed pIC50 for C[C@H]1CC[C@H](c2ccc3sc([C@H]4CCN(C)C[C@@H]4C)nc3c2)N(C(=O)C(=O)Nc2ccn3ccnc3c2)C1 (relative stereo) when tested with HAP1 MTAP-intact cell line stands at < 7.30

The observed pIC50 for "C[C@H]1CC[C@H](c2ccc3sc(C4CCN(C)CC4)nc3c2)N(C(=O)C(=O)Nc2cnc(N)c3cnccc23)C1" when tested with HAP1 MTAP-intact cell line stands at 7.30 to 8.30

The observed pIC50 for "Cc1cc([C@H]2CC[C@H](C)CN2C(=O)C(=O)Nc2cnc(N)c3cn[nH]c23)cc(C)n1" when tested with HAP1 MTAP-intact cell line stands at < 7.30

====

# Test system: MTAP-deleted cell line
# testSummary: viability assay for the MTAP-deleted cell line
# Assay type: cell-based
# conditionLabel: Homo sapiens, HAP1, viability assay
endpointLabel: IC50

Consider the following illustrative entries.
compound="C[C@@H]1CC[C@@H](c2ccc3cn(C)nc3c2)N(C(=O)C(=O)Nc2cncc3cn[nH]c23)C1 (relative stereo) [Compound 13]" measurement="100 to 1000 nM"
compound="C[C@@H]1CC[C@H](c2ccnn2C)N(C(=O)C(=O)Nc2cnc(N)c3cn[nH]c23)C1 [Compound 178]" measurement="100 to 1000 nM"

# next compound below
// field: IC50; key: C[C@H]1CC[C@H](c2ccc3sc([C@@H](C)CN(C)C)nc3c2)N(C(=O)C(=O)Nc2cncc3c(N)nccc23)C1 (relative stereo) [Compound 76] ; value = < 100 nM

====

The following molecules are listed with their measured IC50 values.
# Test system: MTAP-deleted cell line
# testSummary: viability assay for the MTAP-deleted cell line
# Type: cell-based
# conditionLabel: Homo sapiens, HAP1, viability assay

molecule="C[C@H]1CC[C@H](c2ccc3sc([C@@H]4CCN(C)C4)nc3c2)N(C(=O)C(=O)Nc2cncc3cn[nH]c23)C1 (single isomer, unassigned)" measurement="< 100 nM"

// field: IC50; key: C[C@H]1CC[C@H](c2ccc3cc(Cl)cnc3c2)N(C(=O)C(=O)Nc2cnc(N)c3cn[nH]c23)C1 (racemic) ; value = < 100 nM

// field: IC50; key: "C[C@H]1CC[C@H](c2ccc3sc(C4CCN(C)CC4)nc3c2)N(C(=O)C(=O)Nc2cnc3c(c2)C(=O)NC3)C1" ; value = 100 to 1000 nM

====

# Tested on: MTAP-deleted cell line
# testSummary: viability assay for the MTAP-deleted cell line
# Type: cell-based
# conditionLabel: Homo sapiens, HAP1, viability assay
endpointLabel: IC50

compound=C[C@H]1CC[C@H](c2ccc3ccc(C4CCN(C)CC4)nc3c2)N(C(=O)C(=O)Nc2cncc3cn[nH]c23)C1 testtarget="MTAP-deleted cell line" measurement="< 0.1 µM"
compound=Cc1cc([C@H]2CC[C@H](C)CN2C(=O)C(=O)Nc2cnc(N)c3cn[nH]c23)cc(C)n1 testtarget="MTAP-deleted cell line" measurement="< 0.1 µM"

# next compound below
// field: IC50; key: C[C@H]1CC[C@H](c2ccc3sc([C@H]4CCCN(C)C4)nc3c2)N(C(=O)C(=O)Nc2cncc3c(N)nccc23)C1 (relative stereo) ; value = < 0.1 µM

====

# Tested on: MTAP-deleted cell line
# testSummary: viability assay for the MTAP-deleted cell line
# Format: cell-based
# conditionLabel: Homo sapiens, HAP1, viability assay
pIC50: −log10 of the molar value.
endpointLabel: pIC50

Consider the following illustrative entries.
compound="C[C@H]1CC[C@H](c2ccc(CCN(C)C)cc2)N(C(=O)C(=O)Nc2cnc(N)c3cn[nH]c23)C1 (racemic)" testtarget="MTAP-deleted cell line" measurement="> 7.00"
compound="CC(C)n1cc2cc([C@H]3CC[C@H](C)CN3C(=O)C(=O)Nc3cnc(N)c4cn[nH]c34)ccc2n1 (racemic)" testtarget="MTAP-deleted cell line" measurement="> 7.00"
compound="CCn1nccc1[C@H]1CC[C@@H](C)CN1C(=O)C(=O)Nc1cnc(N)c2cn[nH]c12 (stereo in doubt)" testtarget="MTAP-deleted cell line" measurement="6.00 to 7.00"
compound=C[C@H]1CC[C@H](c2ccc3sc(C4CCN(C)CC4)nc3c2)N(C(=O)C(=O)Nc2cnc(N)c3cnccc23)C1 testtarget="MTAP-deleted cell line" measurement="> 7.00"

# next compound below
The observed pIC50 for [2H]c1c([2H])c([2H])c([C@@H]2CC[C@H](C)CN2C(=O)C(=O)Nc2cnc(N)c3cn[nH]c23)c([2H])c1[2H] (single isomer, unassigned) when tested with MTAP-deleted cell line stands at 6.00 to 7.00

====

# System: HAP1 MTAP-deleted cell line
# testSummary: SDMA in-cell western assay, HAP1 MTAP-deleted
# conditionLabel: Homo sapiens, HAP1, read-out: Hap1 MTAP deleted IC50, SDMA in-cell western assay, HAP1 MTAP-deleted cell line
The following molecules are listed with their measured IC50 values.

Consider the following illustrative entries.
molecule="C[C@H]1CC[C@H](c2ccnc(OC3CC3)c2)N(C(=O)C(=O)Nc2cnc(N)c3cn[nH]c23)C1 (racemic)" endpointlabel=IC50 measurement="< 5 nM"
molecule="C[C@@H]1CCC[C@H](c2ccccc2)N1C(=O)C(=O)Nc1cnc(N)c2cn[nH]c12 (racemic)" endpointlabel=IC50 measurement="< 5 nM"
molecule="Nc1ncc(NC(=O)C(=O)N2CCCCC2c2cccc(N3CCCC3)c2)c2[nH]ncc12 (single isomer, unassigned)" endpointlabel=IC50 measurement="5 to 50 nM"
molecule="CCn1nccc1[C@H]1CC[C@@H](C)CN1C(=O)C(=O)Nc1cnc(N)c2cn[nH]c12 (stereo in doubt)" endpointlabel=IC50 measurement="5 to 50 nM"
molecule="COc1ncc([C@H]2CC[C@H](C)CN2C(=O)C(=O)Nc2cnc(N)c3cn[nH]c23)cc1C (racemic)" endpointlabel=IC50 measurement="< 5 nM"

// field: IC50; key: C[C@H]1CC[C@H](c2ccc(CCN(C)C)cc2)N(C(=O)C(=O)Nc2cnc(N)c3cn[nH]c23)C1 (racemic) ; value = < 5 nM

// field: IC50; key: CC(C)n1cc2cc([C@H]3CC[C@H](C)CN3C(=O)C(=O)Nc3cnc(N)c4cn[nH]c34)ccc2n1 (racemic) ; value = < 5 nM

====

# Tested on: HAP1 MTAP-intact cell line
# testSummary: SDMA in-cell western assay, HAP1 MTAP-intact
# conditionLabel: Homo sapiens, HAP1, read-out: Hap1 MTAP intact IC50, SDMA in-cell western, HAP1 MTAP-intact cell line
pIC50: −log10 of the molar value.
The following molecules are listed with their measured pIC50 values.

molecule="C[C@@H]1CC[C@@H](c2ccnn2C)N(C(=O)C(=O)Nc2cnc(N)c3cn[nH]c23)C1 (racemic)" measurement="< 7.30"
molecule="CO[C@@H]1C[C@@H](c2ccc(F)cc2)N(C(=O)C(=O)Nc2cnc(N)c3cn[nH]c23)C[C@@H]1C (single isomer, unassigned)" measurement="7.30 to 8.30"
molecule=C[C@H]1CC[C@H](c2ccc3cn(C4CCN(C)CC4)nc3c2)N(C(=O)C(=O)Nc2cncc3cn[nH]c23)C1 measurement="7.30 to 8.30"
molecule="C[C@H]1CC[C@H](c2cccc(OCCN(C)C)c2)N(C(=O)C(=O)Nc2cncc3cn[nH]c23)C1 (single isomer, unassigned)" measurement="< 7.30"
molecule="C[C@H]1CC[C@H](c2ccc3sc([C@H]4CCCN(C)C4)nc3c2)N(C(=O)C(=O)Nc2cncc3c(N)nccc23)C1 (relative stereo)" measurement="< 7.30"

// field: pIC50; key: C[C@H]1CC[C@H](c2ccc3sc(C4CCN(C)C(=O)C4)nc3c2)N(C(=O)C(=O)Nc2cncc3[nH]ncc23)C1 (single isomer, unassigned) ; value = < 7.30
